# Conc (µM) for Potentiation of doxycycline per entry
Test system: P. aeruginosa ATCC 27853
Assay: Antibiotic potentiation (MIC of antibiotics in the presence of synergizing compounds), P. aeruginosa
Type: cell-based, Pseudomonas aeruginosa
Conditions: concentration required to restore doxycycline activity at 2 µg/mL (4.5 µM) against P. aeruginosa ATCC 27853
parameter: Conc (µM) for Potentiation of doxycycline

compound | result
COc1ccc2[nH]cc(C(=O)C(=O)NCCCNCCCCCCCCCCNCCCNC(=O)C(=O)c3c[nH]c4ccc(OC)cc34)c2c1.O=C(O)C(F)(F)F.O=C(O)C(F)(F)F [Compound 19d] | >200 µM
O=C(NCCCNCCCCCCCCNCCCNC(=O)C(=O)c1c[nH]c2ccc(Br)cc12)C(=O)c1c[nH]c2ccc(Br)cc12.O=C(O)C(F)(F)F.O=C(O)C(F)(F)F [Compound 18c] | >200 µM
COc1ccc2[nH]cc(C(=O)C(=O)NCCCNCCCCCCCCCCCCNCCCNC(=O)C(=O)c3c[nH]c4ccc(OC)cc34)c2c1 [Compound 19e] | >200 µM
